Note to self: these compounds have pIC50 reported for Coagulation factor XI (Homo sapiens) in various publications.
To interpret pIC50, take it as minus log10 of a concentration measured in moles per litre.

Example compounds with recorded pIC50:
INSERT INTO results (compound, readout_kind, recorded_number) VALUES
  ('Nc1c(C(=O)N2CCC[C@@]3(C2)OC(=O)Nc2ccc(Cl)c(F)c23)cnn1C(c1ccccc1)C(F)(F)F (single isomer, unassigned)', 'pIC50', 7.02),
  ('Nc1c(Cl)c(-c2ccc(F)cc2F)nn1CC(=O)N1CCC[C@@]2(C1)OC(=O)Nc1ccc(Cl)c(F)c12', 'pIC50', 6.49),
  ('COCC[C@@H](C(=O)Nc1ccn2ncnc2c1)n1cc2c(cc1=O)-c1cc(Cl)ccc1C[C@@H](C(F)(F)F)OC2 (single isomer, unassigned)', 'pIC50', 8.17);

Exam item: # lookup: pIC50 of O=C(O)c1ccc(NC(=O)C(CC2CC2)c2ccc(-c3cc(Cl)ccc3-n3cc(CO)nn3)c[n+]2[O-])cc1 (racemic)
Marked response: 8.07

Exam item: Another: C[C@@H](c1cnc(N2C[C@H]3C[C@H]3C2=O)nc1)n1cc(NC(=O)c2nc(-c3c(C(F)F)ccc(Cl)c3F)cnc2CO)cn1
Marked response: 6.36
